Cited source for all entries: paper PMC7192615

- EXPERIMENTAL SYSTEM: UP1 (UniProt P09651-2 1-196)
- Sequence (P09651 1-196): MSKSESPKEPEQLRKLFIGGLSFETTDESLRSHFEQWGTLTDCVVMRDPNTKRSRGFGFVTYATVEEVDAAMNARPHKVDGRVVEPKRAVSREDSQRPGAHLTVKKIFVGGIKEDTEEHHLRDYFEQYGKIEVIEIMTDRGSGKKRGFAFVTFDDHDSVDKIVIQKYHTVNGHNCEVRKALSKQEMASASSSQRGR
- TEST METHOD NOTES: ITC; 100 mM KCl; ITC/CD: 20 mM Tris pH 8.0, 100 mM KCl, 25 C; NMR: 10 mM potassium phosphate pH 6.5, 100 mM KCl, 298 K (10% D2O for HSQC)
- CONDITION DETAILS: protein: recombinant; tags: C-terminal 6xHis; intramolecular parallel G4

BINDER	Kd / nM
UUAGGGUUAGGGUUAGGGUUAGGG (structured_RNA) [TERRA-24]	1710
